Experiment: soluble on expression in E. coli; label from the status in PepcDB or PDB records

Monomer sequence	soluble on expression in E. coli
MMKEMTVQQMTEKVLNKESLFILDVRNESDFRDWKIEGENFAYLNVPYFELVHGVDSIVDRLPKDQDIVVVCAKGGSAAFVAEQLAEAGFDNVYTLAGGMQAWSEHLHQAKVYEDDQLKIYQFIRVGKGCLSYMVLSGDEALVVDPLRFIDVYEQVAQQEGVTITHIVDSHLHADHLSGGKALAERTGAAYYLMKSEGAVFDFEPLEQHETIDFENVHLEVLAVKTPGHTPGSVSFFVNGKWLFSGDTIFVGGLGRPDLGGKVAEWAEDLYHTVYEKVAAMADDVIVLPAHYANLDEEINAEGYVGDTLGRIRARNEMMQNKAKDEFIDLVIQGAKTETPPNFEDIVAINRGLKTVDIETQRELEIGPLEHHHHHH	soluble
MGSDKIHHHHHHMIFVGCSGWSYEEWNGVFYPKSKINKLKFYSTMFNTVEVNSTFYREINNDIINRWIETVRGKNFIFSIKVPQNITHKAILEKDSNSKSLYETFIDKTVRPIRNARMLGAVLVQLPPSFNSNLQTELLDTICCENEYRTAVEVRNKDLYSNEELRKELEKRGIAIVDVDSTEHPLSNLNSGLKWSYVRLHGRAQLGWKSQNPYDYRYSEQEISDLSSKIMAKNYDEIFVYFNNHPRGSAPINALKMASCLGISNNWFF	not soluble
MSLEFIPRSEQRPIVDTSSTTLDLIYFDLVTLASNEQDIRRLPAHESLYVVLSGQVDIEVDGIMFEAVGRRADIWGGDADSVYAPVGANVRISARGAAAEVAIAGGLCDTRYAAFRITPDEVDAVNVGSSDTHSQRRIVHLLGQRQNGRCGNLLVSELYAGEGCWSGYPPHKHDTEDGDVETRHEELYHYRFQPETGFGSQITYDEDGPVKILMTRNGDTVLVDRGYHPTVTSPGHQGYIFTILVGKHRRGLIQRFDPAHQHLTKTIPGEGHHHHHH	soluble
SPLKFELCPGRMIGGNNPCFIIAEIGQNHQGDIEIAKKMIKMAKDCGADCAKFQKSELEYKFNKKALERPYTSKHSWGKTYGEHKRHLEFSHEQYRELQQYAKQVGIFFTASGMDEMAVEFLHELDVPFFKVGSGDTNNFPYLKKTAQKGRPMVVSSGMQSMETMQHVYKIVKEHNQNFCILQCTSAYPLEPEDVNLRVITEYQKEFPDIPIGYSGHESGINITVGAVALGAKVVERHVTLDKSWKGSDHAASLEPEELAELVRSIRIVERALGTGLKRMLPCEVPCHDKLGKSVVAKTSIPKGTELTLDMLAVKVAEPKGVAPEEIFQLVGKKVTTDVEEDESITEDVVDSYGKKAKA	soluble
GQDTGEDNLAIKGITTLNDLTMVNVSGPGMKGMVGMASRVFGAMSSAGVSIVLITQSSSEYSISFCIEADDKLKAQQVLADAFELELKDGLLEPVDFIDDVSIVTLVGDGMRTSRGVASRFFSSLAEVNVNIVAIAQGSSERAISAVIPEDKISEAIKACHENLFNSKYF	not soluble

====

Experiment: soluble on expression in E. coli; label from the status in PepcDB or PDB records

Monomer sequence	soluble on expression in E. coli
MAKERALTLEALRVMDAIDRRGSFAAAADELGRVPSALSYTMQKLEEELDVVLFDRSGHRTKFTNVGRMLLERGRVLLEAADKLTTDAEALARGWETHLTIVTEALVPTPAFFPLIDKLAAKANTQLAIITEVLAGAWERLEQGRADIVIAPDMHFRSSSEINSRKLYTLMNVYVAAPDHPIHQEPEPLSEVTRVKYRGIAVADTARERPVLTVQLLDKQPRLTVSTIEDKRQALLAGLGVATMPYPMVEKDIAEGRLRVVSPESTSEIDIIMAWRRDSMGEAKSWCLREIPKLFNGK	soluble
MAMPEKSSDVKPTEECGSFPEIIELNVGGQVYITRYPTLISIPGSRLWEMFSVKNPCSLIQDNKGRFFIDRDGFLFRYVLDYMRDMQVVLPDHFPECGRLHREAEYFKLPELAKMLAPKMNKLNSIGNDSCPIDLEELSPSIDTTFNFSSTNSIHISGPDNPMVLRAAPGSELKKAGFITIGYRGSYTLGRDSQADAKFRRVARIMVCGKISLAKEVFGDTLNESRDPDRPPERYTSRYYLKFTFLEQAFDKLADAGFHMVACNSTGTCTVTHDQTDDRIWTSYTEYVFYRE	soluble

Value source: the DeepSol protein solubility set
